tested on: SF-539 CNS; experiment: NCI-60 one-dose screen, 48 h; conditions: 10 µM unless noted
Compounds without any hit were thinned out: in the full panel of roughly 83,000, 20% have a hit. Activity calls are given as the source filed them. How the source made its calls: active means growth percent below 10; inactive means the rest.
Outcome codes: active, inactive

[[record]]
compound = "COc1ccc(C(C)=O)c(OC)c1"
category_label = "inactive"

[[record]]
compound = "OC(c1cccc(C(F)(F)F)c1)c1cnccc1NC1CCCCC1 (stereo not given)"
category_label = "inactive"

[[record]]
compound = "NS(=O)(=O)c1ccc(CCN2C(=O)C3C(C2=O)C2(Cl)C(Cl)=C(Cl)C3(Cl)C2(Cl)Cl)cc1 (stereo not given)"
category_label = "inactive"

[[record]]
compound = "Cc1ccc(-n2c3c(c(-c4ccccc4)c2-c2ccccc2)C2=NCCN2C=N3)cc1"
category_label = "inactive"

[[record]]
compound = "O=C(CCN1CCCC1)Nc1ccc2c(NCCc3ccccc3)c3ccccc3nc2c1"
category_label = "active"

[[record]]
compound = "OCc1cnccc1NCCCCOc1ccc(Oc2ccccc2)cc1"
category_label = "inactive"

[[record]]
compound = "CC(c1ccccc1)C(C(=O)c1ccccc1)c1ccccc1 (stereo not given)"
category_label = "inactive"

[[record]]
compound = "COc1ccc(CCn2cncc2-c2c[nH]c3ccccc23)cc1"
category_label = "inactive"

[[record]]
compound = "CC(=O)[C@@H]1CC[C@]2(CO)CC[C@]3(C)[C@H](CC[C@@H]4[C@@]5(C)CCCNC(C)(C)[C@@H]5CC[C@]43C)[C@@H]12"
category_label = "inactive"

[[record]]
compound = "Cc1ccc(C(=O)/C(=C/c2ccc([N+](=O)[O-])cc2)SCc2ccc(Cl)cc2)cc1"
category_label = "inactive"


====

tested on: K-562 leukemia; experiment: NCI-60 one-dose screen, 48 h; conditions: 10 µM unless noted
About 83,000 compounds went through this panel and 20% of them were active in at least one assay; those are over-represented in the sample as a whole. Activity calls are given as the source filed them. The calls were made as follows: active = growth percent below 10; inactive = the rest.
Outcome codes: true for active, false for inactive

[[record]]
compound = "N#C/C(=C\\c1ccc([N+](=O)[O-])s1)c1nc2cc(Cl)ccc2s1"
measured_target = "K-562 leukemia"
category_label = "true"

[[record]]
compound = "CN1CCN(C(=O)[C@]23CCC(C)(C)C[C@H]2C2=CC[C@@H]4[C@@]5(C)C/C(=C/c6cccnc6)C(=O)C(C)(C)[C@@H]5CC[C@@]4(C)[C@]2(C)CC3)CC1"
measured_target = "K-562 leukemia"
category_label = "false"

[[record]]
compound = "CCN(CC)c1ccc(C(=O)c2ccccc2)cc1"
measured_target = "K-562 leukemia"
category_label = "false"

[[record]]
compound = "O=S(=O)(NCCNc1nccc(-c2c(-c3cccc(F)c3)nc3sccn23)n1)c1ccc(Br)cc1"
measured_target = "K-562 leukemia"
category_label = "false"

[[record]]
compound = "CC(Sc1nc2sc3c(c2c(=O)n1-c1ccc(Cl)cc1)CCCC3)C(=O)Nc1nc(-c2ccc(Br)cc2)cs1 (centres undefined)"
measured_target = "K-562 leukemia"
category_label = "false"

[[record]]
compound = "COc1ccc(-c2[nH][nH]c(=O)c2-c2nc3ccccc3s2)cc1"
measured_target = "K-562 leukemia"
category_label = "false"

[[record]]
compound = "CNC(=O)c1cncc(Cn2nc(C)c(NC(=O)c3ccc(COc4ccc(C(F)(F)F)cc4C)cc3)c2C)c1"
measured_target = "K-562 leukemia"
category_label = "false"

[[record]]
compound = "CC1(C)c2[nH]c3ccccc3c2C[C@]2(C)[C@H]3C(=O)C=C4[C@@H]5C[C@@](C)(C(N)=O)CC[C@]5(C)CC[C@@]4(C)[C@]3(C)CC[C@@H]12"
measured_target = "K-562 leukemia"
category_label = "false"

[[record]]
compound = "CC(C)N1C(=O)/C(=C2\\SC(=S)N(C(C)C)C2=O)SC1=S"
measured_target = "K-562 leukemia"
category_label = "false"


====

tested on: UACC-257 melanoma; experiment: NCI-60 one-dose screen, 48 h (100 = growth as untreated, 0 = no growth, -100 = all killed); conditions: 10 µM unless noted
This is part of a sample that, as a whole, favours compounds with a hit. Of some 83,000 tested, about 20% had one in any assay.
Each item that follows carries a reported growth.
experimental_endpoint: growth (%)

[[record]]
smiles_input = "Cn1ccnc1C(=O)/C=C/c1ccc(CC(=O)Nc2ccc(Cl)cc2)cc1"
measured_target = "UACC-257 melanoma"
experimental_endpoint = "growth"
readout_number = 85.9

[[record]]
smiles_input = "COc1ccc(N2CCN(c3ccc(NC4=C(Cl)C(=O)c5ncccc5C4=O)cc3)CC2)cc1"
measured_target = "UACC-257 melanoma"
experimental_endpoint = "growth"
readout_number = 35.6

[[record]]
smiles_input = "CCCCCCCCCCCCCCCC[N+]1(C)CCN(SN2CC[N+](C)(CCCCCCCCCCCCCCCC)CC2)CC1"
measured_target = "UACC-257 melanoma"
experimental_endpoint = "growth"
readout_number = 92.9

[[record]]
smiles_input = "O=C1c2cccc3c(-c4ccc5c(c4)ncn5C4CCCCC4)ccc(c23)C(=O)N1c1nc2ccccc2s1"
measured_target = "UACC-257 melanoma"
experimental_endpoint = "growth"
readout_number = 101

[[record]]
smiles_input = "O=C1Nc2ccc(F)cc2/C1=C\\c1c(-c2ccccc2)nc2ccccn12"
measured_target = "UACC-257 melanoma"
experimental_endpoint = "growth"
readout_number = 90.7


====

tested on: TK-10 renal; test: NCI-60 one-dose screen, 48 h; conditions: 10 µM unless noted
This is part of a sample that, as a whole, favours compounds with a hit. Of some 83,000 tested, about 20% had one in any assay. Active and inactive are the calls of the source. How the source made its calls: active means growth percent below 10; inactive means the rest.
Outcome codes: active, inactive

[[record]]
compound = "COc1cc(/C=C\\c2cc(/C=C\\c3ccc(O)c(OC)c3)n(C(=O)COc3ccccc3)n2)ccc1O"
category_label = "inactive"

[[record]]
compound = "CCN(CC)CCCC(C)Nc1cc(O)cc2cccnc12 (stereo unspecified)"
category_label = "inactive"

[[record]]
compound = "N/C(=N\\C(N)=N\\c1nc2ccccc2s1)c1cnccn1"
category_label = "inactive"

[[record]]
compound = "CNCCn1c(=O)c2cc(OC)c(OC)cc2c2ccc3cc4c(cc3c21)OCO4"
category_label = "active"

[[record]]
compound = "C=C1C(=O)O[C@H]2[C@H]1CC/C(CNS(=O)(=O)c1cccc3ccccc13)=C\\CC[C@@]1(C)O[C@@H]21"
category_label = "active"

[[record]]
compound = "Cc1cc2c(C(=O)NCC#N)cccc2n1-c1nc2c(c(NCc3ccccc3)n1)CCCC2"
category_label = "active"

[[record]]
compound = "COC(=O)CNC(=O)[C@]12CCC(C)(C)C[C@H]1C1=CC[C@@H]3[C@@]4(C)Cc5c([nH]c6ccccc56)C(C)(C)[C@@H]4CC[C@@]3(C)[C@]1(C)CC2"
category_label = "inactive"

[[record]]
compound = "O=C(NCCNc1nccc(-c2c(-c3cccc(F)c3)nc3sccn23)n1)c1ccc(Cl)cc1"
category_label = "inactive"

[[record]]
compound = "COc1ccc2[nH]c(=O)c(CN3CCN(c4nccc(-c5ccc(Cl)cc5)n4)CC3)cc2c1"
category_label = "inactive"

[[record]]
compound = "OCc1cnc2ccccc2c1NC1CCCCCC1"
category_label = "inactive"

[[record]]
compound = "COc1ccc(-c2[nH][nH]c(=O)c2-c2nc3ccccc3s2)cc1"
category_label = "inactive"

[[record]]
compound = "CC(Sc1nc2sc3c(c2c(=O)n1-c1ccc(Cl)cc1)CCCC3)C(=O)Nc1nc(-c2ccc(Br)cc2)cs1 (stereo unspecified)"
category_label = "inactive"

[[record]]
compound = "CCN1Cc2nc3sc(C)c(C)c3c(=O)n2C=C1C"
category_label = "inactive"

[[record]]
compound = "COc1ccc(/C=C/C(=O)Nc2cc(/C=C\\c3cc(OC)c(OC)c(OC)c3)cc(OC)c2OC)cc1OC"
category_label = "inactive"

[[record]]
compound = "OCc1cnccc1NCCCCOc1ccc(Oc2ccccc2)cc1"
category_label = "inactive"

[[record]]
compound = "COc1cc2nc(-c3ccc(Cl)cc3)cc(OCCCN3CCC(O)CC3)c2cc1OC"
category_label = "inactive"

[[record]]
compound = "CCOC(=O)/C(C#N)=C1/NNC(=Nc2cccnc2)S1"
category_label = "inactive"

[[record]]
compound = "Nc1c(C(=O)Nc2cccc3cnccc23)sc2nc3c(cc12)CN(Cc1ccccc1)CC3"
category_label = "inactive"

[[record]]
compound = "COc1cc2c(c(OC)c1OC)-c1ccc(NNC(=S)N(Cc3cccc(C[N+](Cc4cccc(CNC56CC7CC(CC(C7)C5)C6)c4)(Cc4cccc(CNC56CC7CC(CC(C7)C5)C6)c4)Cc4cccc(CN(C(=S)NNc5ccc6c(cc5=O)[C@@H](NC(C)=O)CCc5cc(OC)c(OC)c(OC)c5-6)C56CC7CC(CC(C7)C5)C6)c4)c3)C34CC5CC(CC(C5)C3)C4)c(=O)cc1[C@@H](NC(C)=O)CC2 (stereo partly specified)"
category_label = "inactive"

[[record]]
compound = "NS(=O)(=O)c1ccc(Cn2c(SCC(=O)N/N=C/c3ccccc3O)nc3ccccc3c2=O)cc1"
category_label = "inactive"

[[record]]
compound = "Cn1cc(-c2csc(-c3c[nH]c4ccccc34)n2)c2ccnc(Cl)c21"
category_label = "inactive"

[[record]]
compound = "C#CCNC(=O)c1cccc2c1cc(C)n2-c1nc2c(c(NCc3ccccc3)n1)CCCC2"
category_label = "active"

[[record]]
compound = "CC/C(=C\\c1ccc(OC)cc1)C(=O)c1ccc(OC)cc1"
category_label = "inactive"

[[record]]
compound = "Cc1ccccc1NS(=O)(=O)c1cccc(C(=O)Nc2ccc(Br)cc2)c1"
category_label = "inactive"

[[record]]
compound = "COc1ccc(C(=O)c2cc(OC)c(OC)c(OC)c2)cc1O"
category_label = "inactive"

[[record]]
compound = "COc1cc2c(-c3cc4c(cc3CNCCc3ccc5c(c3)OCO5)OCO4)cccc2c(OC)c1O"
category_label = "inactive"

[[record]]
compound = "N/C(=N\\C(N)=N\\c1nc2ccccc2s1)c1ccnc(Br)c1"
category_label = "inactive"

[[record]]
compound = "COc1cc2nc(-c3ccc(C(F)(F)F)cc3)cc(OCCCN3CCCC3)c2cc1OC"
category_label = "inactive"

[[record]]
compound = "CC1=C(C(=O)/C=C/c2c[nH]c3ccccc23)C(c2ccccc2)NC(=S)N1 (stereo unspecified)"
category_label = "inactive"

[[record]]
compound = "O=C(Cc1ccc(/C=C/C(=O)c2ncc[nH]2)cc1)Nc1ccc(Cl)cc1"
category_label = "inactive"

[[record]]
compound = "COc1cc(C=O)ccc1OC1OC(COC(C)=O)C(OC(C)=O)C(OC(C)=O)C1OC(C)=O (stereo unspecified)"
category_label = "inactive"

[[record]]
compound = "COc1ccc2[nH]c(O)c(/C=c3/cc4c(c(-c5ccc(F)cc5)n3)=Nc3ccccc3-4)c2c1"
category_label = "inactive"

[[record]]
compound = "O=C1c2ccc3c4c(ccc(c24)C(=O)N1CCCNCc1ccccc1F)C(=O)N(CCCNCc1ccccc1F)C3=O"
category_label = "active"

[[record]]
compound = "Cc1nc2ccc(Cl)cn2c1-c1nnc(SCc2ccc([N+](=O)[O-])cc2)o1"
category_label = "inactive"

[[record]]
compound = "COc1ccc(OC)c(-c2cc(-c3ccc(Cl)cc3)c3c(N)c(C(=O)c4ccc(Cl)cc4)sc3n2)c1"
category_label = "inactive"

[[record]]
compound = "CCOC(=O)CSc1nc2ccccc2c(=O)n1Cc1ccc(S(N)(=O)=O)cc1"
category_label = "inactive"


Hey, just so you know, these numbers are from PubChem BioAssay (NCI).
